Test system: HepG2
assay-remarks: Cytotoxicity against human HepG2 cells after 48 hrs by MTT assay
Type: functional, cell-based
setup-conditions: HepG2, 48 h
value-type: pIC50
Scale for pIC50: -log10 of concentration given in mol/L; no unit attached.

smiles-repr: COc1cccc2c1C(=O)c1c(O)c3c(c(O)c1C2=O)C[C@@](O)(C(=O)CO)C[C@@H]3O[C@H]1C[C@H](N)[C@H](O)[C@H](C)O1
target-desc: HepG2
pIC50: 6.24

Note to self: pIC50 recorded for O=C(NCCN(CCNC(=O)c1cc2ccccc2cn1)CCNC(=O)c1cc2ccccc2cn1)c1ccccc1 was 4.42

* * *

Test system: KB
assay-remarks: Cytotoxicity against human KB cells after 48 hrs by MTT assay
Assay type: functional, cell-based
value-type: IC50

Recorded IC50 (molecule O=C(NCCN(CCNC(=O)c1cc2ccccc2cn1)CCNC(=O)c1cc2ccccc2cn1)c1ccccc1 ): 75.2 µM

Sample O=C(O)c1cc2ccccc2cn1 ; IC50 observed: > 100 µM

IC50 recorded for this molecule, COc1cccc2c1C(=O)c1c(O)c3c(c(O)c1C2=O)C[C@@](O)(C(=O)CO)C[C@@H]3O[C@H]1C[C@H](N)[C@H](O)[C@H](C)O1 , is 0.13 µM

Source: ChEMBL document CHEMBL3769352
